# assay.info: Apparent permeability across apical to basal side in human Caco-2 cells at 10 uM incubated for 90 mins by LC-MS/MS analysis
measured.metric: Papp A→B at 1.5 h, 10 µM (×10⁻⁶ cm/s)

Consider the reported Papp A→B at 1.5 h, 10 µM for these compounds:
{"given.smiles": "CO[C@@H]1[C@@H](n2cc(-c3csc(N)n3)nn2)[C@@H](O)[C@@H](CO)O[C@@H]1Sc1ccc(Cl)c(Cl)c1", "unit.tag": "×10⁻⁶ cm/s", "observed.result": 3.8}
{"given.smiles": "CO[C@@H]1[C@@H](n2cc(-c3csc(O)n3)nn2)[C@@H](O)[C@@H](CO)O[C@@H]1Sc1ccc(Cl)c(Cl)c1", "unit.tag": "×10⁻⁶ cm/s", "observed.result": 4}

(1) COc1nc(-c2cn([C@@H]3[C@@H](O)[C@@H](Sc4cc(Cl)c(F)c(Cl)c4)O[C@H](CO)[C@@H]3O)nn2)cs1
(2) CO[C@@H]1[C@@H](n2cc(-c3csc(O)n3)nn2)[C@@H](O)[C@@H](CO)O[C@@H]1Sc1cc(Cl)c(F)c(Cl)c1
Param pair: 1 , 2 . Output: the one whose Papp A→B at 1.5 h, 10 µM is numerically greater. // caller expects the label of the chosen entry
1
